assay: IV and PO pharmacokinetic studies of prodrug salts (Iab, Ibb, Icb) in the dog, with historical parent data; type: in vivo, beagle dogs; details: male, beagle, plasma, 6.6 mg/kg, after oral prodrug, analyte = label, ND = not detected, read-out: AUCtot (μM · hr), PO
Observation Type: AUC (µM·h)
Numbers only, in µM·h.

Memo: COc1ncc(OC)c2c(C(=O)C(=O)N3CCN(C(=O)c4ccccc4)CC3)c[nH]c12 , reported AUC: 83

----------
assay: IV and PO pharmacokinetic studies of prodrug salts (Iab, Ibb, Icb) in the monkey, with historical parent data; assay type: in vivo, cynomolgus monkeys; conditions: cynomolgus monkey, plasma; monkey, historical parent, IV 1 mg/kg; read-out: CLtot (mL/min/kg), IV
Observation Type: clearance (mL/min/kg)
Give bare numbers, in mL/min/kg.

Memo: COc1ncc(OC)c2c(C(=O)C(=O)N3CCN(C(=O)c4ccccc4)CC3)c[nH]c12 , reported clearance: 4.3
